- SYSTEM_UNDER_TEST: Human Factor B (human) (UniProt P00751)
- Sequence (P00751 26-764 limits assumed): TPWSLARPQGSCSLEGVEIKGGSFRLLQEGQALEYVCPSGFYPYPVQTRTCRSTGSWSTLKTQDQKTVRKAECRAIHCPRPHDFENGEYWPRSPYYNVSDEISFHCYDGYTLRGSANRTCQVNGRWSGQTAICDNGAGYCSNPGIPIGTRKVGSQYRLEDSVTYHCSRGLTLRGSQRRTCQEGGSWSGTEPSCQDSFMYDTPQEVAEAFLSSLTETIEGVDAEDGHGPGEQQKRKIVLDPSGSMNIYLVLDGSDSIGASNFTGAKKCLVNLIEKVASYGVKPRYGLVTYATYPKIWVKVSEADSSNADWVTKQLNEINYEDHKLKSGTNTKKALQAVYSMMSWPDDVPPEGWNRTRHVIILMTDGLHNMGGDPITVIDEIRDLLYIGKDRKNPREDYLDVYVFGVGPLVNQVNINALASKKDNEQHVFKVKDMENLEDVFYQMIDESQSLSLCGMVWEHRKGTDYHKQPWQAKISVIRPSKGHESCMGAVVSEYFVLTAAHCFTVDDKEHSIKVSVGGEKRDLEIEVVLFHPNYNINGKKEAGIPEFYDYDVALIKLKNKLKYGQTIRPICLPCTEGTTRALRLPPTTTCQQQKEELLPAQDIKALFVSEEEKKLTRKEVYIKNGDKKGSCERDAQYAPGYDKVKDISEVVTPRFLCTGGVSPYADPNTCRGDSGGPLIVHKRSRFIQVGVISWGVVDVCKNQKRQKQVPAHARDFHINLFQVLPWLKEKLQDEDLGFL
- METHOD_NOTES: cell-based or functional assay
For each entry below, report its log10 of fB Cleavage EC50 value.
In our notation, the value equals log10 of fB Cleavage EC50 in nM.

Param item = chymase C22S/K40L/F41K/F173Y/D175N/S218L/A226R (enzyme) IIGGTESKPHSRPYMAYLEIVTSNGPSLKCGGFLIRRNFVLTAAHCAGRSITVTLGAHNITEEEDTWQKLEVIKQFRHPKYNTSTLHHDIMLLKLKEKASLTLAVGTLPFPSQFNFVPPGRMCRVAGWGRTGVLKPGSDTLQEVKLRLMDPQACSHYRNFDHNLQLCVGNPRKTKSAFKGDSGGPLLCAGVAQGIVSYGRLDAKPPRVFTRISHYRPWINQILQAN ; retrieve measured log10 of fB Cleavage EC50.
1.89

Check chymase C22S/P38Q/K40Q/F41R/L99H/V138I/F173Y/D175S/A190S/V213A/S218V/A226R (enzyme) IIGGTESKPHSRPYMAYLEIVTSNGQSQRCGGFLIRRNFVLTAAHCAGRSITVTLGAHNITEEEDTWQKLEVIKQFRHPKYNTSTHHHDIMLLKLKEKASLTLAVGTLPFPSQFNFVPPGRMCRIAGWGRTGVLKPGSDTLQEVKLRLMDPQACSHYRSFDHNLQLCVGNPRKTKSSFKGDSGGPLLCAGVAQGIASYGRVDAKPPRVFTRISHYRPWINQILQAN too.
2.18

Check chymase C22S/S218I/A226R (enzyme) IIGGTESKPHSRPYMAYLEIVTSNGPSKFCGGFLIRRNFVLTAAHCAGRSITVTLGAHNITEEEDTWQKLEVIKQFRHPKYNTSTLHHDIMLLKLKEKASLTLAVGTLPFPSQFNFVPPGRMCRVAGWGRTGVLKPGSDTLQEVKLRLMDPQACSHFRDFDHNLQLCVGNPRKTKSAFKGDSGGPLLCAGVAQGIVSYGRIDAKPPRVFTRISHYRPWINQILQAN too.
2.92

Check chymase C22S/A220S/A226R (enzyme) IIGGTESKPHSRPYMAYLEIVTSNGPSKFCGGFLIRRNFVLTAAHCAGRSITVTLGAHNITEEEDTWQKLEVIKQFRHPKYNTSTLHHDIMLLKLKEKASLTLAVGTLPFPSQFNFVPPGRMCRVAGWGRTGVLKPGSDTLQEVKLRLMDPQACSHFRDFDHNLQLCVGNPRKTKSAFKGDSGGPLLCAGVAQGIVSYGRSDSKPPRVFTRISHYRPWINQILQAN too.
3.75

Check chymase C22S/V138L/A226R (enzyme) IIGGTESKPHSRPYMAYLEIVTSNGPSKFCGGFLIRRNFVLTAAHCAGRSITVTLGAHNITEEEDTWQKLEVIKQFRHPKYNTSTLHHDIMLLKLKEKASLTLAVGTLPFPSQFNFVPPGRMCRLAGWGRTGVLKPGSDTLQEVKLRLMDPQACSHFRDFDHNLQLCVGNPRKTKSAFKGDSGGPLLCAGVAQGIVSYGRSDAKPPRVFTRISHYRPWINQILQAN too.
3.54

Check chymase C22S/P38Q/K40L/F41R/L99F/V138I/F173L/D175N/A190S/V213A/A226R (enzyme) IIGGTESKPHSRPYMAYLEIVTSNGQSLRCGGFLIRRNFVLTAAHCAGRSITVTLGAHNITEEEDTWQKLEVIKQFRHPKYNTSTFHHDIMLLKLKEKASLTLAVGTLPFPSQFNFVPPGRMCRIAGWGRTGVLKPGSDTLQEVKLRLMDPQACSHLRNFDHNLQLCVGNPRKTKSSFKGDSGGPLLCAGVAQGIASYGRSDAKPPRVFTRISHYRPWINQILQAN too.
2.80

Check chymase C22S/V138A/A226R (enzyme) IIGGTESKPHSRPYMAYLEIVTSNGPSKFCGGFLIRRNFVLTAAHCAGRSITVTLGAHNITEEEDTWQKLEVIKQFRHPKYNTSTLHHDIMLLKLKEKASLTLAVGTLPFPSQFNFVPPGRMCRAAGWGRTGVLKPGSDTLQEVKLRLMDPQACSHFRDFDHNLQLCVGNPRKTKSAFKGDSGGPLLCAGVAQGIVSYGRSDAKPPRVFTRISHYRPWINQILQAN too.
3.47
